# Test system: Plasmodium falciparum
# protocol.notes: Antiplasmodial activity against Plasmodium falciparum NF54
# Format: functional, organism-based
property.measured: IC50 (nM)
Reply with just the number (in nM).

stdin: Any idea what IC50 was measured for COc1cccc2c(-c3ccc4c(c3O)[C@@H](C)N[C@H](C)C4)c(C)c(-c3c(C)c(-c4ccc5c(c4O)[C@@H](C)N[C@H](C)C5)c4cccc(OC)c4c3O)c(O)c12 (stereo in doubt; 4e) ?
stdout: 137
